Test: Mouse plasma clearance of fluorescent probes after intravenous injection
Type: in vivo
Details: read-out: Mouse plasma clearance C0; 75 nmol i.v., biexponential fit
Observation type: C0 (µM)
Field format: number, assumed µM, no unit text.

**Query** Any idea what C0 was measured for "Cc1cc(C)n2c1C=C1C=CC(CCC(=O)N3CCN(C(=O)c4cc(Cc5n[nH]c(=O)c6ccccc56)ccc4F)CC3)=[N+]1[B-]2(F)F" ?
**Result** 7
